// log10(IC50) lookup, one value per entry
Molecular target: Indoleamine 2,3-dioxygenase 1 (Homo sapiens)
Experiment: Inhibition of N-terminal hexa-histidine tagged human IDO1 (12 to 403 residues) expressed in Escherichia coli Transetta (DE3) using L-tryptophan as substrate preincubated with enzyme for 10 mins followed by substrate addition and measured after 30 to 60 mins by microplate reader analysis
Sequence (P14902 whole entry, the tested form may be a part): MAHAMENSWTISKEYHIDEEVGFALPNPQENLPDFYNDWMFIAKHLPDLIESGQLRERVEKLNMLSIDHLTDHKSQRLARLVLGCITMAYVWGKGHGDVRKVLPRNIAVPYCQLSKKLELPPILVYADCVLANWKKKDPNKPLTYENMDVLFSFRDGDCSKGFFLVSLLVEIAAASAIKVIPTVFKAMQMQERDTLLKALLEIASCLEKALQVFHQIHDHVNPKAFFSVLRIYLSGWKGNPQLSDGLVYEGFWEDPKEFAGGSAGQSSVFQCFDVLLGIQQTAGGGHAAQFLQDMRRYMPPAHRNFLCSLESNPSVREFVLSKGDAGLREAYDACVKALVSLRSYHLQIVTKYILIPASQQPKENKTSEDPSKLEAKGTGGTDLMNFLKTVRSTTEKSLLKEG
Answers are given as log10 of IC50 in µM.

# count of solved cases: 4
>>> numeric_result("O=[N+]([O-])c1ccc(Cl)cc1CNc1cc(C(F)(F)F)cc2[nH]ncc12")
1.58
>>> numeric_result("O=[N+]([O-])c1ccc(O)cc1CNc1cc(Br)cc2[nH]ncc12")
-0.04
>>> numeric_result("O=[N+](O)c1c(Cl)cccc1CNc1cc(C(F)(F)F)cc2[nH]ncc12")
1.78
>>> numeric_result("O=[N+]([O-])c1ccccc1CNc1cc(C(F)(F)F)cc2[nH]ncc12")
1.14

What does the record list as log10(IC50) for "O=[N+]([O-])c1ccc(CNc2cc(C(F)(F)F)cc3[nH]ncc23)cc1" ?
1.79

----------
Molecular target: UniProt P14902
Experiment: Inhibition of N-terminal hexa-histidine tagged human IDO1 (12 to 403 residues) expressed in Escherichia coli Transetta (DE3) using L-tryptophan as substrate at 100 uM preincubated with enzyme for 10 mins followed by substrate addition and measured after 30 to 60 mins by microplate reader analysis relative to control
Details: time 40-70 min
Sequence (P14902 whole entry, looked up, the tested form may be a part): as the sequence (P14902 whole entry, the tested form may be a part) above
# binarize inhibition: threshold 50% inclusive, high side TRUE, low side FALSE

>>> group("COC(=O)c1cc(NCc2ccccc2[N+](=O)[O-])c2cn[nH]c2c1")
"FALSE"
>>> group("FC(F)(F)c1cc(NC[C@H]2CCCN2)c2cn[nH]c2c1")
"TRUE"
>>> group("FC(F)(F)c1cc(NCc2cccc3sccc23)c2cn[nH]c2c1")
"FALSE"
>>> group("FC(F)(F)c1cc(NCC2CNC2)c2cn[nH]c2c1")
"FALSE"
>>> group("O=[N+]([O-])c1ccccc1CNc1cc(Br)cc2cn[nH]c12")
"FALSE"
>>> group("O=[N+]([O-])c1cccc(CNc2cc(C(F)(F)F)cc3[nH]ncc23)c1")
"TRUE"

Decide: is the reported value of inhibition for "O=[N+]([O-])c1ccccc1CNc1cccc2[nH]ncc12" equal to or greater than 50%?
TRUE

Decide: is the reported value of inhibition for "O=[N+]([O-])c1ccc(CNc2cc(Br)cc3[nH]ncc23)cc1" equal to or greater than 50%?
TRUE

Decide: is the reported value of inhibition for "O=[N+]([O-])c1ccccc1CNc1cc(Br)cc2[nH]ncc12" equal to or greater than 50%?
TRUE

Decide: is the reported value of inhibition for "O=[N+]([O-])c1cc(OCc2ccccc2)ccc1CNc1cc(C(F)(F)F)cc2[nH]ncc12" equal to or greater than 50%?
FALSE

Decide: is the reported value of inhibition for "Nc1cccc(CNc2cc(C(F)(F)F)cc3[nH]ncc23)c1" equal to or greater than 50%?
TRUE

Decide: is the reported value of inhibition for "CS(=O)(=O)c1ccc(CNc2cc(C(F)(F)F)cc3[nH]ncc23)c([N+](=O)O)c1" equal to or greater than 50%?
TRUE

Decide: is the reported value of inhibition for "O=[N+]([O-])c1ccc2[nH]c(CNc3cc(C(F)(F)F)cc4[nH]ncc34)cc2c1" equal to or greater than 50%?
FALSE

Decide: is the reported value of inhibition for "O=[N+]([O-])c1ccc(CNc2cc(C(F)(F)F)cc3[nH]ncc23)cc1" equal to or greater than 50%?
TRUE

Decide: is the reported value of inhibition for "FC(F)(F)c1cc(NC[C@H]2CCCCN2)c2cn[nH]c2c1" equal to or greater than 50%?
TRUE

Decide: is the reported value of inhibition for "NCCn1ncc2c(NCc3ccccc3[N+](=O)[O-])cc(C(F)(F)F)cc21" equal to or greater than 50%?
FALSE

Decide: is the reported value of inhibition for "O=[N+]([O-])c1cccc(CNc2cc(Br)cc3[nH]ncc23)c1" equal to or greater than 50%?
TRUE

Decide: is the reported value of inhibition for "N#Cc1cc(NCc2ccccc2[N+](=O)[O-])c2cn[nH]c2c1" equal to or greater than 50%?
FALSE

Decide: is the reported value of inhibition for "O=[N+]([O-])c1cc(Br)c(F)cc1CNc1cc(C(F)(F)F)cc2[nH]ncc12" equal to or greater than 50%?
TRUE

Decide: is the reported value of inhibition for "O=C(O)CNc1cccc(CNc2cc(C(F)(F)F)cc3[nH]ncc23)c1" equal to or greater than 50%?
FALSE

Decide: is the reported value of inhibition for "O=[N+]([O-])c1cc(Cl)ccc1CNc1cc(C(F)(F)F)cc2[nH]ncc12" equal to or greater than 50%?
TRUE

Decide: is the reported value of inhibition for "O=[N+]([O-])c1ccc(Cl)cc1CNc1cc(C(F)(F)F)cc2[nH]ncc12" equal to or greater than 50%?
TRUE

Decide: is the reported value of inhibition for "O=[N+]([O-])c1ccccc1CNc1cc(C(F)(F)F)cc2[nH]ncc12" equal to or greater than 50%?
TRUE
